# procedure_summary: Bidirectional transport of API and TMS-NLCs across cell monolayers
# Type: in vitro ADME, canine
# run_parameters: dog; MDCK; with verapamil (100 µM); 10 µg/mL, 4 h, 37 °C
# Procedure: MDCK and MDCK-chAbcg2/Abcb1 cells were seeded on 12-well Transwell® polycarbonate inserts at a density of 2 × 10^5 cells per well to constitute in vitro cell monolayer models. The apical side (AP) of the insert was filled with 0.5 mL medium, and the basolateral (BL) side was filled with 1.5 mL medium. The medium was replaced every two days. It took 5~7 days to form an intact cell monolayer. The permeability efficiency was evaluated by comparing the bidirectional transport between API and TMS-NLCs. […]
measure: Papp B→A at 4 h, 10 µg/mL

[[record]]
mol_smiles = "CC[C@H]1OC(=O)C[C@@H](O)[C@H](C)[C@@H](O[C@@H]2O[C@H](C)[C@@H](O)[C@H](N(C)C)[C@H]2O)[C@@H](CCN2C[C@H](C)C[C@H](C)C2)C[C@@H](C)C(=O)/C=C/C(C)=C/[C@@H]1CO[C@@H]1O[C@H](C)[C@@H](O)[C@@H](OC)[C@H]1OC"
measure = "Papp B→A at 4 h, 10 µg/mL"
result = "0.41 ×10⁻⁶ cm/s"

